biological target: MsepCSP5 (Mythimna separata); assay: Fluorescence competitive binding assay with the probe 1-NPN; settings: IC50, pH 7.4; displacement of 1-NPN from MsepCSP5
pIC50: −log10 of the molar value.
measured.endpoint: pIC50

compound=CCCCCCCCCCCC(C)=O measured=4.86
compound=CC12CCC(CC1)C(C)(C)O2 measured=4.84
compound=CCCCCC measured=4.83

P = C=CC(C)(O)CCC=C(C)CCC=C(C)C (mixture of isomers)
Q = C=CC(C)(O)CCC=C(C)C (centres unmarked)
Exercise: compare P and Q ; which one has the greater pIC50? Pick one; state its label.
P

----------
Target: MsepCSP5 (Mythimna separata)
Sequence (A0A5H2NAD7 1-127): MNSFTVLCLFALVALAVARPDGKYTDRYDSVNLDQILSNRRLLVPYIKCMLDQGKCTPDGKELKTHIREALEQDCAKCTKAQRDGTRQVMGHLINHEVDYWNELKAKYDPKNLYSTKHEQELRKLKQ
Experiment: Fluorescence competitive binding assay with the probe 1-NPN
Settings: Ki, pH 5.0; Ki = IC50/(1+[1-NPN]/K1-NPN)
pKi: −log10 of the molar value.
measured.endpoint: pKi

compound="CCCCCCCCCCCCCCCCCCCC [Eicosane]" measured_target="MsepCSP5 (Mythimna separata)" measured_endpoint=pKi measured=5.14
compound="CC12CCC(CC1)C(C)(C)O2 [Eucalyptol]" measured_target="MsepCSP5 (Mythimna separata)" measured_endpoint=pKi measured=5.35
compound="CCCCCC [Hexane]" measured_target="MsepCSP5 (Mythimna separata)" measured_endpoint=pKi measured=5.05
compound="CCC(O)CC [3-Pentanol]" measured_target="MsepCSP5 (Mythimna separata)" measured_endpoint=pKi measured=5.17
compound="CCCCCC=O [Hexanal]" measured_target="MsepCSP5 (Mythimna separata)" measured_endpoint=pKi measured=5.35
compound="CCOC(C)=O [Ethylacetate]" measured_target="MsepCSP5 (Mythimna separata)" measured_endpoint=pKi measured=5.37
compound="COC(=O)c1ccccc1 [Methyl benzoate]" measured_target="MsepCSP5 (Mythimna separata)" measured_endpoint=pKi measured=5.29
compound="CCCCCCCCCCCC(C)=O [2Tridecanone]" measured_target="MsepCSP5 (Mythimna separata)" measured_endpoint=pKi measured=5.31
compound="CCC/C=C/C=O [Trans-2-hexenal]" measured_target="MsepCSP5 (Mythimna separata)" measured_endpoint=pKi measured=4.68
compound="C=CC(C)(O)CCC=C(C)CCC=C(C)C (mixture of isomers) [Nerolidol]" measured_target="MsepCSP5 (Mythimna separata)" measured_endpoint=pKi measured=5.21
compound="OC1CCCCC1 [Cyclohexanol]" measured_target="MsepCSP5 (Mythimna separata)" measured_endpoint=pKi measured=4.47

Hey, just so you know, these numbers are from paper PMC6299372.
